Target: Adrenergic β2 (H292 cells) (Homo sapiens)
Construct: endogenous in cells; host or cells: H292 cells
Sequence (P07550 whole entry): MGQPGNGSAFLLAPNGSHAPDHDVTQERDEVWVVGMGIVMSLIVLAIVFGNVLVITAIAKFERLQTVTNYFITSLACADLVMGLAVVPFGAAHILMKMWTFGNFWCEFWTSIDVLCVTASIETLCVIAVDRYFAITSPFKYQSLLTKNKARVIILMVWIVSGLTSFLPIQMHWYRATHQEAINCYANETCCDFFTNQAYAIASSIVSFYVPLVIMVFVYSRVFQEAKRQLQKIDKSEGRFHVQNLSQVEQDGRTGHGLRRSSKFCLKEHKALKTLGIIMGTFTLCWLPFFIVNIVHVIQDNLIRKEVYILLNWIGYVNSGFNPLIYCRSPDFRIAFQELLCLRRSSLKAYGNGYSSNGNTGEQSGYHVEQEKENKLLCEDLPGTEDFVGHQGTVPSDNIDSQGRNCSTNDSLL
Experiment: Assay for Adrenergic β2 Mediated cAMP Production (concentration response, AlphaScreen cAMP detection)
Format: cell-based
Settings: fraction relative to the maximum activity determined for formoterol
Experimental: Assay for Adrenergic β2 Mediated Camp Production H292 cells are grown in 225 cm2 flasks incubator at 37° C., 5% CO2 in RPMI medium containing 10% (v/v) FBS (foetal bovine serum) and 2 mM L-glutamine. […] The concentration of cAMP (cyclic adenosine monophosphate) in the cell lysate is determined using AlphaScreen™ methodology. […] Intrinsic Activity is expressed as a fraction relative to the maximum activity determined for formoterol in each experiment.
Recorded measurements of β2 Intrinsic activity, one per entry

# COMPOUND, β2 Intrinsic activity
rows = [
    ("O=C(c1csc(C(F)(F)F)n1)N1CCOC2(CCN(Cc3cccc(CCNC[C@H](O)c4ccc(O)c5[nH]c(=O)ccc45)c3)CC2)C1 [Example 25, ditrifluoroacetate]", 0.8),
    ("Cc1nc(C(=O)N2CCOC3(CCN(CCOc4cc(C)c(CNC[C@H](O)c5ccc(O)c6[nH]c(=O)ccc56)cc4C)CC3)C2)cs1 [Example 97, ditrifluoroacetate]", 1.5),
    ("Cc1ccc(C(=O)N2CCOC3(CCN(Cc4cccc(OCCNC[C@H](O)c5ccc(O)c6[nH]c(=O)sc56)c4)CC3)C2)s1 [Example 38, ditrifluoroacetate]", 0.8),
    ("CC(C)c1nc(C(=O)N2CCOC3(CCN(CCOc4ccc(CCNC[C@H](O)c5ccc(O)c6[nH]c(=O)ccc56)c(F)c4F)CC3)C2)cs1 [Example 77, ditrifluoroacetate]", 1),
    ("CC(C)c1nc(C(=O)N2CCOC3(CCN(Cc4cc(CCNC[C@H](O)c5ccc(O)c6[nH]c(=O)sc56)cs4)CC3)C2)cs1 [Example 36, ditrifluoroacetate]", 1),
    ("O=C(c1csc(CC(F)(F)F)n1)N1CCOC2(CCN(Cc3cccc(CCNC[C@H](O)c4ccc(O)c5[nH]c(=O)sc45)c3F)CC2)C1 [Example 67, ditrifluoroacetate]", 0.9),
    ("CCc1ccc(C(=O)N2CCOC3(CCN(Cc4cccc(CCNC[C@H](O)c5ccc(O)c6[nH]c(=O)ccc56)c4)CC3)C2)s1 [Example 12, ditrifluoroacetate]", 1),
    ("O=C(c1csc(C(F)(F)F)n1)N1CCOC2(CCN(CCCCCCCCCNC[C@H](O)c3ccc(O)c4[nH]c(=O)sc34)CC2)C1", 0.9),
    ("CC(C)c1nc(C(=O)N2CCOC3(CCN(Cc4cccc(CCNC[C@H](O)c5ccc(O)c6[nH]c(=O)ccc56)c4Cl)CC3)C2)cs1 [Example 81, ditrifluoroacetate]", 0.7),
    ("CC(C)Cc1nc(C(=O)N2CCOC3(CCN(Cc4cccc(CCNC[C@H](O)c5ccc(O)c6[nH]c(=O)sc56)c4F)CC3)C2)cs1 [Example 72, ditrifluoroacetate]", 0.8),
]
